Molecular target: T1, APC3645-AA
T1 chain: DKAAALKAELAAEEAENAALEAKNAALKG
Experiment: two-hybrid library CCmax;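 note: natural log of median RNA to DNA barcode read ratio; higher means stronger binding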
Settings: mean of both orientations
Endpoint: interaction score
// keep it numeric: no unit symbol after the value

{"Binder": "DKIAALEAEIAALKAKIAALEAENAALKG [4H2148-AA]", "interaction score": -1.31}
{"Binder": "DEAAALEAENAALEAELAAIEAKNAALKG [APC2405-AA]", "interaction score": -1.29}
{"Binder": "DELAAIEAEAAALEAKAAALKAEAAALEG [APC232-AA]", "interaction score": -1.5}

IN: // query interaction score value for entry DKLAAIKAENAALEAKAAALKAENAALEG [APC1434-AA]
OUT: -1.31
